- System: ADP-stimulated platelets
- measurement-protocol: Inhibition of ADP-stimulated platelet aggregation (gel-filtered human platelets)
- Type: cell-based
- study-conditions: read-out: IC50 (concentration required to inhibit aggregation by 50% relative to a control lacking the compound), gel-filtered human platelets 2×10^8 per ml, fibrinogen 100 ug/ml, Ca^2+ 1 mM, 10 mM ADP, 37° C.
recorded-metric: pIC50
For clarity, pIC50 is expressed as the negative log10 of concentration in mol/L.

O=C(O)[C@H](Cc1ccc(OCCCCC2CCNCC2)cc1)NS(=O)(=O)c1ccccc1: 7.74

Returns the measured pIC50 for the input compound. Input: `O=C(O)[C@H](Cc1ccc(OCCCCC2CCNCC2)cc1)NS(=O)(=O)CCc1ccccc1`
7.54

Which measured pIC50 value corresponds to `CS(=O)(=O)N[C@@H](Cc1ccc(OCCCCC2CCNCC2)cc1)C(=O)O` ?
7.20

Given `CCCCS(=O)(=O)N[C@@H](Cc1ccc(OCCCCC2CCNCC2)cc1)C(=O)O` , state its recorded pIC50.
7.82

If you can, please state the reported pIC50 value of `O=C(O)[C@H](Cc1ccc(OCCCCC2CCNCC2)cc1)NS(=O)(=O)Cc1ccccc1` .
7.74
